- targetOrTestSystem: PI3K beta (Homo sapiens, UniProt P42338)
- Construct: for the full-length p110-b subunit are generated and fused by overlapping PCR; p85(iSH2) fusion partner (see partner chain) (N); His tag (C); Tn5 (Trichoplusia ni) or TiniPro insect cells
- Sequence (P42338 with tags, fused parts or gaps limits assumed): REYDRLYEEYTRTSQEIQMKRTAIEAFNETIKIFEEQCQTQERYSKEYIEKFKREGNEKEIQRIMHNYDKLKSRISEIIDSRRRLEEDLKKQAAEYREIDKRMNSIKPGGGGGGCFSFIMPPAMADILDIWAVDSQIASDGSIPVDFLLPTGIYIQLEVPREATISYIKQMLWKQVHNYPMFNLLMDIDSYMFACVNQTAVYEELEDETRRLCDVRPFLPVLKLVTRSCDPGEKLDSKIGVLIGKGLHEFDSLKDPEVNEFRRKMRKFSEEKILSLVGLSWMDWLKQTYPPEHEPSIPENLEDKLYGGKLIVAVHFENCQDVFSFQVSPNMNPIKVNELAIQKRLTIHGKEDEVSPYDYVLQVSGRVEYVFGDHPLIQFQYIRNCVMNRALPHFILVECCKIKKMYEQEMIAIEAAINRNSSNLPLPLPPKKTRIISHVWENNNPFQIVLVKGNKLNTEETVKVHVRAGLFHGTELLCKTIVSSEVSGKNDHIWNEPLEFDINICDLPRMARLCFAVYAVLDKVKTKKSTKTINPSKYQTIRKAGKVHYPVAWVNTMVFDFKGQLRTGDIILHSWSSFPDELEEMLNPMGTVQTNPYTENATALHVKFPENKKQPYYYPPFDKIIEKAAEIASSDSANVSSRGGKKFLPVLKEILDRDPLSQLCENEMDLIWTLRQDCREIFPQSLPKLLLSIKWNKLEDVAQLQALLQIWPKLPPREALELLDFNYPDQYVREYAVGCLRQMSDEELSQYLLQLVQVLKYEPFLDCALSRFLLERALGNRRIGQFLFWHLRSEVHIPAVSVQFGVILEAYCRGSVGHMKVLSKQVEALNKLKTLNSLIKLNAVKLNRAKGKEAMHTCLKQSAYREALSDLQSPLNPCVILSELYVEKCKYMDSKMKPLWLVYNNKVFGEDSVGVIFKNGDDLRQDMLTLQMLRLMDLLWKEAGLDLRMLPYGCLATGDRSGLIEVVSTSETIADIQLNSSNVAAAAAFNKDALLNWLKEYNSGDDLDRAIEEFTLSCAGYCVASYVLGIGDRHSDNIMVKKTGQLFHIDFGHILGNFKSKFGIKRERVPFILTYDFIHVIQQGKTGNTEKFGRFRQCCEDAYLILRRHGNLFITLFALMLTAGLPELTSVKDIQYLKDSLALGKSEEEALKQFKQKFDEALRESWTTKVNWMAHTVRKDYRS
- assayName: PI3K beta kinase assay (Kinase-Glo luminescence)
# reported IC50; entries follow
Numbers only here, please. The scale is nM.

COc1ncc(-c2ccc3ncc4c(c3c2)n(-c2cn(C)nc2C)c(=O)n4C)cc1F = 25

Can you look up the measured IC50 of CCOc1cc(-c2ccc3ncc4c(c3c2)n(-c2cn(CCO)nc2C)c(=O)n4C)cnc1C for me?
17

Continue with CCN(C)c1cncc(-c2ccc3ncc4c(c3c2)n(-c2cn(C)nc2C)c(=O)n4C)c1
33

Continue with COC(C)(C)c1cncc(-c2ccc3ncc4c(c3c2)n(-c2cn(C)nc2C)c(=O)n4C)c1
13

Where these numbers come from: patent US20140005163A1
